# ASSAY REMARKS: Protein binding in plasma
# Format: ADME, cell-free
# CONDITION SUMMARY: read-out: PPB
So I've got a bunch of molecules here, and I need their fraction unbound values.

Prompt: What value of fraction unbound has been recorded for this entry: "c1ccc2c3c([nH]c2c1)CNCC3"
Completion: < 0.1

Prompt: "CC[C@H]1CN2CCc3c([nH]c4ccccc34)[C@H]2C[C@@H]1C[C@@H]1NCCc2c1[nH]c1ccccc21" ?
Completion: < 0.05
